Measured values drawn from the supplement of paper PMC12669032 for this set.

- Test system: Collinsella aerofaciens
- Assay Summary: growth AUC relative to DMSO control (median of replicates) (fraction); higher = more growth (less inhibition), active = hit call of the paper
- Reported Conditions: 20 µM; 24 h

{"Compound": "c1ccc(CNc2ncnc3nc[nH]c23)cc1", "growth AUC": "1 (inactive)"}
{"Compound": "CCOC(=O)c1cnn(C)c1S(=O)(=O)NC(=O)Nc1nc(OC)cc(OC)n1", "growth AUC": "1 (inactive)"}
{"Compound": "CN(C)C(=O)NC1CCCCCCC1", "growth AUC": "1.01 (inactive)"}
{"Compound": "CC(C)NS(=O)(=O)NC(=O)c1cc(-n2c(=O)cc(C(F)(F)F)[nH]c2=O)c(F)cc1Cl", "growth AUC": "0.994 (inactive)"}
{"Compound": "O=C(Nc1ccc(Cl)cc1C(O)c1ccccc1)c1ccncc1 (configuration not stated)", "growth AUC": "0.994 (inactive)"}
{"Compound": "CCOC(=O)C(C)N(C(=O)c1ccccc1)c1ccc(Cl)c(Cl)c1 (configuration not stated)", "growth AUC": "1.02 (inactive)"}
{"Compound": "FC(F)(F)C(=NOCC1OCCO1)c1ccc(Cl)cc1", "growth AUC": "0.976 (inactive)"}
{"Compound": "O=C(Nc1ccc(F)cc1)c1cccc(Oc2cccc(C(F)(F)F)c2)n1", "growth AUC": "0.865 (inactive)"}
{"Compound": "Nc1ccc(S(=O)(=O)Nc2nccs2)cc1", "growth AUC": "0.978 (inactive)"}
{"Compound": "CCN(CC)c1nc(C)cc(=O)[nH]1", "growth AUC": "1.01 (inactive)"}
{"Compound": "CP(=O)(O)CCC(=O)O", "growth AUC": "1 (inactive)"}
{"Compound": "CCOC(=O)c1nc(C(Cl)(Cl)Cl)n(-c2ccc(Cl)cc2Cl)n1", "growth AUC": "0.952 (inactive)"}
{"Compound": "CCOCCOC(=O)C(C)Oc1ccc(Oc2ncc(C(F)(F)F)cc2Cl)cc1 (configuration not stated)", "growth AUC": "1.03 (inactive)"}
{"Compound": "CC(C)C(O)(c1ccc(OC(F)(F)F)cc1)c1cncnc1 (configuration not stated)", "growth AUC": "1.03 (inactive)"}
{"Compound": "COc1c(Cl)ccc(Cl)c1C(=O)O", "growth AUC": "1.04 (inactive)"}
{"Compound": "CCc1cccc(CC)c1N(COC)C(=O)CS(=O)(=O)[O-].[Na+]", "growth AUC": "0.966 (inactive)"}
{"Compound": "O=[N+]([O-])c1ccc2c(c1)Cc1ccccc1-2", "growth AUC": "1 (inactive)"}
{"Compound": "O=c1cccc2n1CCn1c-2cccc1=O", "growth AUC": "0.98 (inactive)"}
{"Compound": "CCN(CC)C(=O)SCc1ccccc1Cl", "growth AUC": "1.01 (inactive)"}
{"Compound": "COC1CCC2(CC1)NC(=O)C(O)(c1cc(C)ccc1C)C2=O (configuration not stated)", "growth AUC": "0.981 (inactive)"}
{"Compound": "C#CCOC(=O)[C@@H](C)Oc1ccc(Oc2ncc(Cl)cc2F)cc1", "growth AUC": "0.964 (inactive)"}
{"Compound": "COC(=O)CCCOc1ccc(Cl)cc1Cl", "growth AUC": "0.987 (inactive)"}
{"Compound": "ClC(COCC(Cl)C(Cl)(Cl)Cl)C(Cl)(Cl)Cl (configuration not stated)", "growth AUC": "1.05 (inactive)"}
{"Compound": "COc1cc(Cl)ccc1Oc1ccc(Cl)cc1Cl", "growth AUC": "1.01 (inactive)"}
{"Compound": "CCc1cccc(C)c1N(C(=O)C(=O)O)[C@@H](C)C(=O)O", "growth AUC": "0.986 (inactive)"}
{"Compound": "COc1cc(OC)c(Cl)cc1N", "growth AUC": "1.03 (inactive)"}
{"Compound": "Clc1ccc(CSc2ccc(Cl)cc2)cc1", "growth AUC": "0.984 (inactive)"}
{"Compound": "c1ccc2c(c1)ccc1ccccc12", "growth AUC": "1.02 (inactive)"}
{"Compound": "CN(C)C(=O)Nc1ccccc1", "growth AUC": "0.984 (inactive)"}
{"Compound": "CCc1ccc(O)cc1", "growth AUC": "0.919 (inactive)"}
{"Compound": "CCCOc1nc2ccc(I)cc2c(=O)n1CCC", "growth AUC": "0.952 (inactive)"}
{"Compound": "Oc1ccc2ccccc2c1N=Nc1ccccc1", "growth AUC": "0.917 (inactive)"}
{"Compound": "NC(=O)c1nn(-c2c(Cl)cc(C(F)(F)F)cc2Cl)c(N)c1S(=O)C(F)(F)F (configuration not stated)", "growth AUC": "0.985 (inactive)"}
{"Compound": "CCc1cccc(C)c1N(COC(C)C)C(=O)CCl", "growth AUC": "1.03 (inactive)"}
{"Compound": "CCCCOCCOCCOCc1cc2c(cc1CCC)OCO2", "growth AUC": "0.98 (inactive)"}
{"Compound": "O=C(O)c1ccc(Cl)cc1Cl", "growth AUC": "1.02 (inactive)"}
{"Compound": "CCCC(C)(C)C(=O)Nc1ccc(Cl)cc1", "growth AUC": "1.02 (inactive)"}
{"Compound": "Cc1cc(C2CC2)nc(Nc2ccc(O)cc2)n1", "growth AUC": "0.975 (inactive)"}
{"Compound": "NC(=S)Nc1cccc2ccccc12", "growth AUC": "0.909 (inactive)"}
{"Compound": "Cc1cc(CC(C)CC(C)(C)C)n(O)c(=O)c1.NCCO (configuration not stated)", "growth AUC": "0.933 (inactive)"}
{"Compound": "CCc1cccc(C)c1N(C(=O)CS(=O)(=O)[O-])C(C)COC.[Na+] (configuration not stated)", "growth AUC": "0.923 (inactive)"}
{"Compound": "CSc1nc(NC2CC2)nc(NC(C)(C)C)n1", "growth AUC": "1.06 (inactive)"}
